Form field: DC50 (one value per entry).
- measurement_target: WEE1 (Homo sapiens, UniProt P30291+Q96SW2)
- Construct: C-terminal ePL-tagged (DiscoverX, Fremont, CA) full-length WEE1 expression construct; expressed in transfected cells; host or cells: LentiX-HEK293T (Invitrogen), lentiviral transduction; co-expressing GSPT1-GN (G576N, lacking the first 158 amino acids)
- assay_info: WEE1-ePL degradation assay (LentiX-WEE1-ePL-GSPT1-ND cells, InCELL Hunter luminescence, 4 h)
- Type: cell-based
- measurement_parameters: 293T-LentiX WEE1-ePL cells, read-out: 293T-LentiX WEE1-ePL Degradation 4 hr (EC50)
measurement_label: DC50 (nM)

[[record]]
molecule = "COc1ccc2cc(CN3CC[C@H](Oc4ccc5c(c4)CN(C4CCC(=O)NC4=O)C5=O)C3)ccc2n1 (stereo partly drawn)"
value = 6.24

[[record]]
molecule = "C[C@@H]1CN(Cc2ccc3nc([C@H]4CCOC(C)(C)C4)ccc3c2)C[C@H]1Oc1ccc2c(c1)CN([C@H]1CCC(=O)NC1=O)C2=O"
value = 3.51

[[record]]
molecule = "COC[C@@H]1CN(Cc2ccc3nc(N4CCN(C(C)=O)CC4)ccc3c2)C[C@H]1Oc1ccc2c(c1)CN([C@H]1CCC(=O)NC1=O)C2=O"
value = 1.41

[[record]]
molecule = "C#Cc1ncc2cc(CN3CC[C@H](Oc4ccc5c(c4)CN(C4CCC(=O)NC4=O)C5=O)C3)ccc2n1 (stereo partly drawn)"
value = 16.5

[[record]]
molecule = "O=C1CCC(N2Cc3cc(O[C@H]4CCN(Cc5ccnc6c5CCCO6)C4)ccc3C2=O)C(=O)N1 (stereo partly drawn)"
value = 38.9

[[record]]
molecule = "CC(C)(O)c1ccc2cc(CN3CC[C@H](Oc4ccc5c(c4)CN(C4CCC(=O)NC4=O)C5=O)C3)ncc2c1 (stereo partly drawn)"
value = 5.41

[[record]]
molecule = "O=C1CCC(N2Cc3cc(O[C@H]4CCN(Cc5ccc6nc(N7[C@@H]8CC[C@H]7COC8)ccc6c5)C4)ccc3C2=O)C(=O)N1 (stereo partly drawn)"
value = 4.47

[[record]]
molecule = "COC1CCN(c2ccc3cc(CN4CC[C@H](Oc5ccc6c(c5)CN(C5CCC(=O)NC5=O)C6=O)C4)ccc3n2)CC1 (stereo partly drawn)"
value = 2.49

[[record]]
molecule = "O=C1CCC(N2Cc3cc(O[C@H]4CCN(Cc5cc6ccc(C(F)(F)F)cc6cn5)C4)ccc3C2=O)C(=O)N1 (stereo partly drawn)"
value = 1.47

[[record]]
molecule = "CO[C@@H]1CCC[C@H]1c1ccc2cc(CN3CC[C@H](Oc4ccc5c(c4)CN(C4CCC(=O)NC4=O)C5=O)C3)ccc2n1 (stereo partly drawn)"
value = 3.01

[[record]]
molecule = "O=C1CCC(N2Cc3cc(O[C@H]4CCN(Cc5ccc6nc(N7CCC78CCOCC8)ncc6c5)C4)ccc3C2=O)C(=O)N1 (stereo partly drawn)"
value = 11.4

[[record]]
molecule = "CC1(C)C[C@@H](c2ncc3cc(CN4CC[C@H](Oc5ccc6c(c5)CN([C@H]5CCC(=O)NC5=O)C6=O)C4)ccc3n2)CCO1"
value = 24.9

[[record]]
molecule = "O=C1CCC(N2C(=O)c3ccc(O[C@H]4CCN(Cc5ccnc6ccccc56)C4)cc3C2=O)C(=O)N1 (stereo partly drawn)"
value = 1230

[[record]]
molecule = "COC[C@@H]1CCC[C@@H](c2ccc3cc(CN4CC[C@H](Oc5ccc6c(c5)CN(C5CCC(=O)NC5=O)C6=O)C4)ccc3n2)C1 (stereo partly drawn)"
value = 2.17

[[record]]
molecule = "O=C1CC[C@H](N2Cc3cc(O[C@H]4CCN(Cc5cc(F)c6nc([C@@H]7CCOC7)ccc6c5)C4)ccc3C2=O)C(=O)N1"
value = 1.73

[[record]]
molecule = "O=C1CCC(N2Cc3cc(O[C@H]4CCN(Cc5ccc6[nH]c(=O)ccc6c5)C4)ccc3C2=O)C(=O)N1 (stereo partly drawn)"
value = 74.7

[[record]]
molecule = "CC1(C)C[C@@H](c2ccc3cc(CN4CC[C@H](Oc5ccc6c(c5)CN([C@H]5CCC(=O)NC5=O)C6=O)C4)cc(F)c3n2)CCO1"
value = 3.8

[[record]]
molecule = "Cc1cc(CN2CC[C@H](Oc3ccc4c(c3)CN(C3CCC(=O)NC3=O)C4=O)C2)ccn1 (stereo partly drawn)"
value = 39.5

[[record]]
molecule = "CO[C@@H]1CCCC[C@H]1c1ccc2cc(CN3CC[C@H](Oc4ccc5c(c4)CN(C4CCC(=O)NC4=O)C5=O)C3)ccc2n1 (stereo partly drawn)"
value = 21.5

[[record]]
molecule = "O=C1CCC(N2Cc3cc(O[C@H]4CCN(Cc5cc6cccnc6cn5)C4)ccc3C2=O)C(=O)N1 (stereo partly drawn)"
value = 14.7

[[record]]
molecule = "O=C1CCC(N2Cc3cc(O[C@H]4CCN(Cc5ccc6nc(N7CCOCC7)ccc6c5)C4)ccc3C2=O)C(=O)N1 (stereo partly drawn)"
value = 2.69

[[record]]
molecule = "O=C1CC[C@H](N2Cc3cc(O[C@@H]4CN(Cc5ccc6nc([C@@H]7CCOC7)ccc6c5)CC4(F)F)ccc3C2=O)C(=O)N1"
value = 8.72

[[record]]
molecule = "N#Cc1nc2ccccc2cc1CN1CC[C@H](Oc2ccc3c(c2)CN(C2CCC(=O)NC2=O)C3=O)C1 (stereo partly drawn)"
value = 1.2

[[record]]
molecule = "N#Cc1ccc2cc(CN3CC[C@H](Oc4ccc5c(c4)CN([C@H]4CCC(=O)NC4=O)C5=O)C3)cc(F)c2n1"
value = 1.71

[[record]]
molecule = "O=C1CC[C@@H](N2Cc3cc(O[C@H]4CCN(Cc5ccc6ncccc6c5)C4)ccc3C2=O)C(=O)N1"
value = 3.55

[[record]]
molecule = "O=C1CC[C@H](N2Cc3cc(O[C@H]4CCN(Cc5cc(F)c6nc(C7CCOCC7)ccc6c5)C4)ccc3C2=O)C(=O)N1"
value = 1.45

[[record]]
molecule = "CCc1ccc2cc(CN3CC[C@H](Oc4ccc5c(c4)CN(C4CCC(=O)NC4=O)C5=O)C3)ccc2n1 (stereo partly drawn)"
value = 3.02

[[record]]
molecule = "O=C1CCC(N2Cc3cc(O[C@H]4CCN(Cc5ccc6nc([C@H]7CC[C@@H](O)CC7)ccc6c5)C4)ccc3C2=O)C(=O)N1 (stereo partly drawn)"
value = 1.03

[[record]]
molecule = "Cc1cnc2ccc(CN3CC[C@H](Oc4ccc5c(c4)CN(C4CCC(=O)NC4=O)C5=O)C3)cc2c1 (stereo partly drawn)"
value = 4.47

[[record]]
molecule = "COC(C)(C)c1ccc2cc(CN3CC[C@H](Oc4ccc5c(c4)CN(C4CCC(=O)NC4=O)C5=O)C3)ccc2n1 (stereo partly drawn)"
value = 2.6


* * *

- measurement_target: WEE1 (Homo sapiens, UniProt P30291+Q96SW2)
- Construct: C-terminal ePL-tagged (DiscoverX, Fremont, CA) full-length WEE1 expression construct; expressed in transfected cells; host or cells: LentiX-HEK293T (Invitrogen), lentiviral transduction; co-expressing GSPT1-GN (G576N, lacking the first 158 amino acids)
- assay_info: WEE1-ePL degradation assay (LentiX-WEE1-ePL-GSPT1-ND cells, InCELL Hunter luminescence, 4 h)
- Assay type: cell-based
- measurement_parameters: 293T-LentiX WEE1-ePL cells, read-out: 293T-LentiX WEE1-ePL Degradation 4 hr (EC50)
Form field: DC50 (one value per entry).
measurement_label: DC50

[[record]]
compound = "O=C1CCC(N2Cc3cc(O[C@H]4CCN(Cc5ccc6nc(N7CCOCC7=O)ccc6c5)C4)ccc3C2=O)C(=O)N1 (stereo partly shown)"
measurement_target = "WEE1 (Homo sapiens, UniProt P30291+Q96SW2)"
measurement_label = "DC50"
value = "2.43 nM"

[[record]]
compound = "C[C@@H]1CN(Cc2ccc3nc([C@H]4CCOC4)ccc3c2)C[C@H]1Oc1ccc2c(c1)CN(C1CCC(=O)NC1=O)C2=O (stereo partly shown)"
measurement_target = "WEE1 (Homo sapiens, UniProt P30291+Q96SW2)"
measurement_label = "DC50"
value = "1.41 nM"

[[record]]
compound = "O=C1CC[C@H](N2Cc3cc(O[C@H]4CCN(Cc5cc(F)c6nc(N7CCOCC7)ncc6c5)C4)ccc3C2=O)C(=O)N1"
measurement_target = "WEE1 (Homo sapiens, UniProt P30291+Q96SW2)"
measurement_label = "DC50"
value = "3.13 nM"

[[record]]
compound = "CN(C(=O)C1CCOCC1)c1ccc2cc(CN3CC[C@H](Oc4ccc5c(c4)CN(C4CCC(=O)NC4=O)C5=O)C3)ccc2n1 (stereo partly shown)"
measurement_target = "WEE1 (Homo sapiens, UniProt P30291+Q96SW2)"
measurement_label = "DC50"
value = "5.04 nM"

[[record]]
compound = "O=C1CCC(N2Cc3cc(O[C@H]4CCN(Cc5ccc6nc(CF)ccc6c5)C4)ccc3C2=O)C(=O)N1 (stereo partly shown)"
measurement_target = "WEE1 (Homo sapiens, UniProt P30291+Q96SW2)"
measurement_label = "DC50"
value = "1.62 nM"

[[record]]
compound = "CN1CCN(c2ncc3cc(CN4CC[C@H](Oc5ccc6c(c5)CN([C@H]5CCC(=O)NC5=O)C6=O)C4)ccc3n2)CC1"
measurement_target = "WEE1 (Homo sapiens, UniProt P30291+Q96SW2)"
measurement_label = "DC50"
value = "11.1 nM"

[[record]]
compound = "CC1(C)C[C@H](c2ccc3cc(CN4CC[C@H](Oc5ccc6c(c5)CN([C@H]5CCC(=O)NC5=O)C6=O)C4)ccc3n2)CCO1"
measurement_target = "WEE1 (Homo sapiens, UniProt P30291+Q96SW2)"
measurement_label = "DC50"
value = "1.85 nM"

